Conditions: 25.0 °C
Measurement Kind: log10 OH rate constant (cm³/molecule/s)

Reference set (2 entries):
Field log10 OH rate constant (cm³/molecule/s) (entry "FC(F)(F)Cl" ) reads < -15.2

The compound "FC(F)(Cl)Br" showed log10 OH rate constant (cm³/molecule/s) equal to < -15

***
Just so you know, measured log10 OH rate constant (cm³/molecule/s) for "ClC(Cl)(Cl)Cl" came out at < -15.9

----------
Conditions: 25.0 °C
The entries below come with measured log10 OH rate constant (cm³/molecule/s) values attached.
// no unit string in output, number only

Record excerpt, results attached:
Given item "C=C(C)C=O" , the value recorded as its log10 OH rate constant (cm³/molecule/s) is -10.5

The value of log10 OH rate constant (cm³/molecule/s) measured for the compound "CCCCCCCCCC" turned out to be -10.9

compound "CC(=O)C(C)(C)C" , log10 OH rate constant (cm³/molecule/s) observed: -11.9

Record "CC(=O)CO" , field log10 OH rate constant (cm³/molecule/s): -11.5

Lab note: measured log10 OH rate constant (cm³/molecule/s) of "C1CC2CCC1C2" was -11.3

log10 OH rate constant (cm³/molecule/s) reading for "CCCCC=O" : -10.5

We next turn to a different compound, shown below.
The compound listed as "OCCO" has a reported log10 OH rate constant (cm³/molecule/s) of -11.1
